Biological target: Recombinant human CD33 protein (Homo sapiens (Human), UniProt P20138)
Sequence (P20138 18-259): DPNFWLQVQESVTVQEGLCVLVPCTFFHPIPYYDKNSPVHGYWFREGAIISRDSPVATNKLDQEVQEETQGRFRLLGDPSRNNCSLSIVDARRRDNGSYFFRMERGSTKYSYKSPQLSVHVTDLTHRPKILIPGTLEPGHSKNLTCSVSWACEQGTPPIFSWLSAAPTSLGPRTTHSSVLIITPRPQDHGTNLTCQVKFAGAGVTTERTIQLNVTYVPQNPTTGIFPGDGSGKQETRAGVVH
Assay: CD33 competitive binding assay for HTS drug screen (fluorescent multivalent sialic acid probe)
Text: This is a competitive binding assay that uses recombinant CD33 immobilized to a plate and a fluorescently-labeled multivalent sialic acid analog as a probe. Binding of drug to the site on CD33 to which sialic acid binds is detected by reduced binding of the fluorescent probe. […] Bound complex was then detected using a standard plate reader to quantify FITC fluorescence.
pEC50: −log10 of the molar value.
ENDPOINT_LABEL: pEC50

Cc1cc(C(=O)NC[C@@H](O)[C@@H](O)[C@@H]2O[C@@](C/C=C/c3cccc(CNC(=O)c4ccccc4C(F)(F)F)c3)(C(=O)O)C[C@H](O)[C@H]2NC(=O)Cn2cc(C3CCCCC3)nn2)cc(C)c1O [A-269] | 5.46
CC(=O)N[C@H]1[C@H]([C@H](O)[C@H](O)CNC(=O)c2cc(C)c(O)c(C)c2)O[C@@](CCN2CCOC[C@@]23CCN(C(=S)NC2CCCCC2)C3)(C(=O)O)C[C@@H]1O [A-052] | 7.18
CC(=O)N[C@H]1[C@H]([C@H](O)[C@H](O)CNC(=O)c2cc(-c3csc(C)n3)on2)O[C@@](CCN2CCOC[C@@]23CCN(C(=O)OC(C)(C)C)C3)(C(=O)O)C[C@@H]1O [A-179] | 6.66
Cc1cc2cc(C)c1OCCCOC[C@H](NC(=O)C1CCCOC1)COC/C=C/C[C@]1(C(=O)O)C[C@H](O)[C@@H](NC(=O)Cn3cc(C4CCCCC4)nn3)[C@@H](O1)[C@H](O)[C@H](O)CNC2=O (some centres unmarked) [A-335] | 6.22

====

target: Recombinant Human Siglec-3/CD33 protein (His-CD33) (Homo sapiens (Human)); experiment: Differential scanning fluorimetry (DSF) thermal shift assay; format: binding; conditions: thermal melt shift of 0.5 μM CD33 protein with 50 μM compound
ENDPOINT_LABEL: DSF (dTmD)

CC(=O)N[C@H]1[C@H]([C@H](O)[C@H](O)CNC(=O)c2cc(Br)ccc2F)O[C@@](CCN2CCOC[C@@]23CCN(C(=O)OC(C)(C)C)C3)(C(=O)O)C[C@@H]1O | 7.6
CC(=O)N[C@H]1[C@H]([C@H](O)[C@H](O)CNC(=O)c2ccc(C(F)(F)F)c(O)c2)O[C@@](CCN2CCOC[C@@]23CCN(C(=O)OC(C)(C)C)C3)(C(=O)O)C[C@@H]1O | 10.6
CC(=O)N[C@H]1[C@H]([C@H](O)[C@H](O)CNC(=O)c2ccc3[nH]nnc3c2)O[C@@](CCN2CCOC[C@@]23CCN(C(=O)OC(C)(C)C)C3)(C(=O)O)C[C@@H]1O | 9.5
CC(=O)N[C@H]1[C@H]([C@H](O)[C@H](O)CNC(=O)c2ccc(C)c(C(F)(F)F)c2)O[C@@](CCN2CCOC[C@@]23CCN(C(=O)OC(C)(C)C)C3)(C(=O)O)C[C@@H]1O | 9.6
CC(=O)N[C@H]1[C@H]([C@H](O)[C@H](O)CNC(=O)c2cnn(C)c2)O[C@@](CCN2CCOC[C@@]23CCN(C(=O)OC(C)(C)C)C3)(C(=O)O)C[C@@H]1O | 7.5
CC(=O)N[C@H]1[C@H]([C@H](O)[C@H](O)CNC(=O)c2cc(C)c(O)c(C)c2)O[C@@](CCN2CCOC[C@@]23CCN(C(=O)NC2CCCCC2)C3)(C(=O)O)C[C@@H]1O | 12.6
CC(=O)N[C@H]1[C@H]([C@H](O)[C@H](O)CNC(=O)c2cc(C)oc2C(F)(F)F)O[C@@](CCN2CCOC[C@@]23CCN(C(=O)OC(C)(C)C)C3)(C(=O)O)C[C@@H]1O | 8.0
CC(=O)N[C@H]1[C@H]([C@H](O)[C@H](O)CNC(=O)c2cc(C)c(O)c(C)c2)O[C@@](CCN2CCCC[C@]23CN(C(=O)OC(C)(C)C)C[C@@H]3CO)(C(=O)O)C[C@@H]1O | 8.1
COc1c(C)cc(C(=O)NC[C@@H](O)[C@@H](O)[C@@H]2O[C@@](CCN3CCOC[C@@]34CCN(C(=O)OC(C)(C)C)C4)(C(=O)O)C[C@H](O)[C@H]2NC(C)=O)cc1C | 12.1
CC(=O)N[C@H]1[C@H]([C@H](O)[C@H](O)CNC(=O)c2cc(C)c(O)c(C)c2)O[C@@](CCN2CCOC[C@@]23CCN(C(=O)C2(C)COC2)C3)(C(=O)O)C[C@@H]1O | 5.6

====

Some molecules, each annotated with its measured EC50.
biological target: Recombinant human CD33 protein (Homo sapiens (Human)); assay: CD33 competitive binding assay for HTS drug screen (fluorescent multivalent sialic acid probe)
ENDPOINT_LABEL: EC50 (nM)

CC(=O)N[C@H]1[C@H]([C@H](O)[C@H](O)CNC(=O)c2cc(C)c(O)c(C)c2)O[C@@](CCN2CCN(C(C)=O)C[C@]23CCN(C(=O)OC(C)(C)C)C3)(C(=O)O)C[C@@H]1O | 3340
CC(=O)N[C@H]1[C@H]([C@H](O)[C@H](O)CNC(=O)c2cc(C)c(O)c(C)c2)O[C@@](C/C=C/c2cccc(CNC(=O)c3cccc(Nc4nccs4)c3)c2)(C(=O)O)C[C@@H]1O | 7970
CC(=O)N[C@H]1[C@H]([C@H](O)[C@H](O)CNC(=O)c2cc(C)c(O)c(C)c2)O[C@@](C/C=C/c2cccc(CNC(=O)c3ccc4[nH]c(-c5cccn5-c5ncccn5)nc4c3)c2)(C(=O)O)C[C@@H]1O | 578
CC(=O)N[C@H]1[C@H]([C@H](O)[C@H](O)CNC(=O)c2ccc3c(cnn3C)c2)O[C@@](CCN2CCOC[C@@]23CCN(C(=O)OC(C)(C)C)C3)(C(=O)O)C[C@@H]1O | 28
CC(=O)N[C@H]1[C@H]([C@H](O)[C@H](O)CNC(=O)c2cccc(N(C)C)c2)O[C@@](CCN2CCOC[C@@]23CCN(C(=O)OC(C)(C)C)C3)(C(=O)O)C[C@@H]1O | 173
CC(=O)N[C@H]1[C@H]([C@H](O)[C@H](O)CNC(=O)c2ccc3[nH]cnc3c2)O[C@@](CCN2CCOC[C@@]23CCN(C(=O)OC(C)(C)C)C3)(C(=O)O)C[C@@H]1O | 101
CC(=O)N[C@H]1[C@H]([C@H](O)[C@H](O)CNC(=O)c2cc(C)c(O)c(C)c2)O[C@@](CCN2CCCC[C@@]23CN(C(=O)OC(C)(C)C)C[C@H]3CO)(C(=O)O)C[C@@H]1O | 9730
C=C[C@@H]1CN(C(=O)OC(C)(C)C)C[C@]1(C)NCC[C@]1(C(=O)O)C[C@H](O)[C@@H](NC(C)=O)[C@H]([C@H](O)[C@H](O)CNC(=O)c2cc(C)c(O)c(C)c2)O1 | 413
CC(=O)N[C@H]1[C@H]([C@H](O)[C@H](O)CNC(=O)c2cc(C)c(O)c(C)c2)O[C@@](CCN2CCOCC2(C)CNC(=O)OC(C)(C)C)(C(=O)O)C[C@@H]1O (stereo partly shown) | 2000
CC(=O)N[C@H]1[C@H]([C@H](O)[C@H](O)CNC(=O)c2cc(C)c(O)c(C)c2)O[C@@](C/C=C/c2cccc(CNC(=O)c3ccc4[nH]c(C(C)O)nc4c3)c2)(C(=O)O)C[C@@H]1O (stereo partly shown) | 255

====

target: Recombinant Human Siglec-3/CD33 protein (His-CD33) (Homo sapiens (Human), UniProt P20138); experiment: Differential scanning fluorimetry (DSF) thermal shift assay; format: binding; settings: difference in thermal melt of CD33 protein (0.5 μM) with 50 μM compound
Some molecules, each annotated with its measured DSF (dTmD).
ENDPOINT_LABEL: DSF (dTmD) (°C)

CC(=O)N[C@H]1[C@H]([C@H](O)[C@H](O)CNC(=O)c2cc(C)c(O)c(C)c2)O[C@@](C[C@@H]2COCC3(CCN(C(=O)OC(C)(C)C)CC3)N2)(C(=O)O)C[C@@H]1O | 1.1
CC(=O)NC1[C@H]([C@H](O)[C@H](O)CNC(=O)c2cc(C)c(O)c(C)c2)O[C@@](CC(=O)N2CCOC[C@@]23CCN(C(=O)NC(C)(C)C)C3)(C(=O)O)C[C@@H]1O (stereo partly drawn) | 8.9
CC(=O)N[C@H]1[C@H]([C@H](O)[C@H](O)CNC(=O)c2cc(C)c(O)c(C)c2)O[C@@](C/C=C/c2cccc(C3CCCN3C(=O)OC(C)(C)C)c2)(C(=O)O)C[C@@H]1O (stereo partly drawn) | 4.0
CC(=O)NC1[C@H]([C@H](O)[C@H](O)CNC(=O)c2cc(C)c(O)c(C)c2)O[C@@](CC(=O)N2CCOC[C@]23CCN(C(=O)OC(C)(C)C)C3)(C(=O)O)C[C@@H]1O (stereo partly drawn) [A-220] | 9.3
Cc1cc(C(=O)NC[C@@H](O)[C@@H](O)[C@@H]2O[C@@](C/C=C/c3ccccc3)(C(=O)O)C[C@H](O)[C@H]2NC(=O)Cn2cc(C3CCCCC3)nn2)cc(C)c1O | 2.1
Cc1cc(C(=O)NC[C@@H](O)[C@@H](O)[C@@H]2O[C@@](C/C=C/c3cccc(CNC(=O)C4CCC[C@H](NS(C)(=O)=O)C4)c3)(C(=O)O)C[C@H](O)[C@H]2NC(=O)Cn2cc(C3CCCCC3)nn2)cc(C)c1O (stereo partly drawn) | 6.2
